experimental_conditions: 303.15 K; 101 kPa; Liquid mixture 1; Ring tensiometer
interfacial tension under 9 mN/m gets true, anything at or over 9 mN/m gets false.

{"columns": ["compound", "group_label"],
 "data": [
  ["CCCCCn1cc[n+](C)c1.F[P-](F)(F)(F)(F)F [1-methyl-3-pentylimidazolium hexafluorophosphate] + CCCCCCC", "false"],
  ["CCCCn1cc[n+](C)c1.F[P-](F)(F)(F)(F)F [1-butyl-3-methylimidazolium hexafluorophosphate] + CCCCCCC", "false"],
  ["CCCCCCCC[n+]1ccn(C)c1.F[P-](F)(F)(F)(F)F [1-octyl-3-methylimidazolium hexafluorophosphate] + CCCCCC", "true"]
]}

###

experimental_conditions: 333.15 K; 101 kPa; Liquid mixture 1; Ring tensiometer
attribute_measured: interfacial tension (mN/m)

{"columns": ["compound", "measured"],
 "data": [
  ["CCCCCCn1cc[n+](C)c1.F[P-](F)(F)(F)(F)F [1-hexyl-3-methylimidazolium hexafluorophosphate] + CCCCCCC", 8.47],
  ["CCCCCn1cc[n+](C)c1.F[P-](F)(F)(F)(F)F [1-methyl-3-pentylimidazolium hexafluorophosphate] + CCCCCCC", 11.53],
  ["CCCCn1cc[n+](C)c1.F[P-](F)(F)(F)(F)F [1-butyl-3-methylimidazolium hexafluorophosphate] + CCCCCCC", 14.41],
  ["CCCCCn1cc[n+](C)c1.F[P-](F)(F)(F)(F)F [1-methyl-3-pentylimidazolium hexafluorophosphate] + CCCCCC", 11.67],
  ["CCCCCCCC[n+]1ccn(C)c1.F[P-](F)(F)(F)(F)F [1-octyl-3-methylimidazolium hexafluorophosphate] + CCCCCC", 4.46],
  ["CCCCCCn1cc[n+](C)c1.F[P-](F)(F)(F)(F)F [1-hexyl-3-methylimidazolium hexafluorophosphate] + CCCCCC", 8.68]
]}

###

experimental_conditions: 283.15 K; 101 kPa; Liquid mixture 1; Ring tensiometer
Numbers after ± are expanded uncertainties.
Reported interfacial tension values follow for various molecules
attribute_measured: interfacial tension

{"columns": ["molecule", "attribute_measured", "measured"],
 "data": [
  ["CCCCCCn1cc[n+](C)c1.F[P-](F)(F)(F)(F)F [1-hexyl-3-methylimidazolium hexafluorophosphate] + CCCCCCC", "interfacial tension", "8.86 ± 0.26 mN/m"],
  ["CCCCCn1cc[n+](C)c1.F[P-](F)(F)(F)(F)F [1-methyl-3-pentylimidazolium hexafluorophosphate] + CCCCCCC", "interfacial tension", "12.23 ± 0.3 mN/m"],
  ["CCCCCn1cc[n+](C)c1.F[P-](F)(F)(F)(F)F [1-methyl-3-pentylimidazolium hexafluorophosphate] + CCCCCC", "interfacial tension", "12.37 ± 0.3 mN/m"],
  ["CCCCCCCC[n+]1ccn(C)c1.F[P-](F)(F)(F)(F)F [1-octyl-3-methylimidazolium hexafluorophosphate] + CCCCCC", "interfacial tension", "4.89 ± 0.23 mN/m"],
  ["CCCCCCn1cc[n+](C)c1.F[P-](F)(F)(F)(F)F [1-hexyl-3-methylimidazolium hexafluorophosphate] + CCCCCC", "interfacial tension", "9.01 ± 0.26 mN/m"],
  ["CCCCn1cc[n+](C)c1.F[P-](F)(F)(F)(F)F [1-butyl-3-methylimidazolium hexafluorophosphate] + CCCCCCC", "interfacial tension", "14.81 ± 0.32 mN/m"]
]}

###

experimental_conditions: 313.15 K; 101 kPa; Liquid mixture 1; Ring tensiometer
interfacial tension under 9 mN/m gets class 1, anything at or over 9 mN/m gets class 0.

{"columns": ["compound", "group_label"],
 "data": [
  ["CCCCCCCC[n+]1ccn(C)c1.F[P-](F)(F)(F)(F)F [1-octyl-3-methylimidazolium hexafluorophosphate] + CCCCCC", "class 1"],
  ["CCCCCn1cc[n+](C)c1.F[P-](F)(F)(F)(F)F [1-methyl-3-pentylimidazolium hexafluorophosphate] + CCCCCCC", "class 0"],
  ["CCCCCCn1cc[n+](C)c1.F[P-](F)(F)(F)(F)F [1-hexyl-3-methylimidazolium hexafluorophosphate] + CCCCCCC", "class 1"],
  ["CCCCn1cc[n+](C)c1.F[P-](F)(F)(F)(F)F [1-butyl-3-methylimidazolium hexafluorophosphate] + CCCCCCC", "class 0"]
]}

###

experimental_conditions: 323.15 K; 101 kPa; Liquid mixture 1; Ring tensiometer
attribute_measured: interfacial tension (mN/m)

{"columns": ["compound", "attribute_measured", "units_label", "measured"],
 "data": [
  ["CCCCCCCC[n+]1ccn(C)c1.F[P-](F)(F)(F)(F)F [1-octyl-3-methylimidazolium hexafluorophosphate] + CCCCCC", "interfacial tension", "mN/m", 4.45],
  ["CCCCCn1cc[n+](C)c1.F[P-](F)(F)(F)(F)F [1-methyl-3-pentylimidazolium hexafluorophosphate] + CCCCCCC", "interfacial tension", "mN/m", 11.63],
  ["CCCCCCn1cc[n+](C)c1.F[P-](F)(F)(F)(F)F [1-hexyl-3-methylimidazolium hexafluorophosphate] + CCCCCCC", "interfacial tension", "mN/m", 8.54],
  ["CCCCCn1cc[n+](C)c1.F[P-](F)(F)(F)(F)F [1-methyl-3-pentylimidazolium hexafluorophosphate] + CCCCCC", "interfacial tension", "mN/m", 11.78],
  ["CCCCCCn1cc[n+](C)c1.F[P-](F)(F)(F)(F)F [1-hexyl-3-methylimidazolium hexafluorophosphate] + CCCCCC", "interfacial tension", "mN/m", 8.73],
  ["CCCCn1cc[n+](C)c1.F[P-](F)(F)(F)(F)F [1-butyl-3-methylimidazolium hexafluorophosphate] + CCCCCCC", "interfacial tension", "mN/m", 14.5]
]}

###

experimental_conditions: 293.15 K; 101 kPa; Liquid mixture 1; Ring tensiometer

{"columns": ["compound", "interfacial tension (mN/m)"],
 "data": [
  ["CCCCCCn1cc[n+](C)c1.F[P-](F)(F)(F)(F)F [1-hexyl-3-methylimidazolium hexafluorophosphate] + CCCCCCC", 8.74],
  ["CCCCCn1cc[n+](C)c1.F[P-](F)(F)(F)(F)F [1-methyl-3-pentylimidazolium hexafluorophosphate] + CCCCCCC", 12.12],
  ["CCCCCCn1cc[n+](C)c1.F[P-](F)(F)(F)(F)F [1-hexyl-3-methylimidazolium hexafluorophosphate] + CCCCCC", 8.9],
  ["CCCCCn1cc[n+](C)c1.F[P-](F)(F)(F)(F)F [1-methyl-3-pentylimidazolium hexafluorophosphate] + CCCCCC", 11.92],
  ["CCCCCCCC[n+]1ccn(C)c1.F[P-](F)(F)(F)(F)F [1-octyl-3-methylimidazolium hexafluorophosphate] + CCCCCC", 4.77],
  ["CCCCn1cc[n+](C)c1.F[P-](F)(F)(F)(F)F [1-butyl-3-methylimidazolium hexafluorophosphate] + CCCCCCC", 14.69]
]}

// provenance: the NIST ThermoML archive (doi:10.1021/je100407f)
